As shown below, each of these binders has a reported Phospho-SMAD3 Human Skeletal Muscle GDF8 (AlphaLisa, primary human myotubes) value.
molecular target: Human ACVR2A (on cells) (human, UniProt P27037 20-513); test: cell-based or functional assay
Sequence (P27037 20-513): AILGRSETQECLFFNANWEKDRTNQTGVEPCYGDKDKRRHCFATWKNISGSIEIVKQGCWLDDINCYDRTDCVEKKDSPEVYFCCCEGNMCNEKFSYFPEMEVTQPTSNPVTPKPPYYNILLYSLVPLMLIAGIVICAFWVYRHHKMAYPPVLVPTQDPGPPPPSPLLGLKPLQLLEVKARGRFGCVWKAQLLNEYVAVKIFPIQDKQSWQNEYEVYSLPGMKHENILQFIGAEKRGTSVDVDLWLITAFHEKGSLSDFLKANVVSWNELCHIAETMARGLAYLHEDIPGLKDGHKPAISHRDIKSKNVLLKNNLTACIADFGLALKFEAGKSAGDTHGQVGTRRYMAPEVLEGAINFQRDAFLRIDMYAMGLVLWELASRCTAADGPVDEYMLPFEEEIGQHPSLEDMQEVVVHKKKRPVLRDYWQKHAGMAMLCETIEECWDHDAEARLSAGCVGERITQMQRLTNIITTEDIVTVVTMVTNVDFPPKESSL
Provide a numeric answer; units are not to be included.

Record request: Phospho-SMAD3 Human Skeletal Muscle GDF8 (AlphaLisa, primary human myotubes) value, item 370_E07 (antibody, V domains shown) VH: EVQLLESGGGLVQPGGSLRLSCAASGFTFDSYSMNWVRQAPGKGLEWVANINYNGGYTGYADSVKGRFTISRDNSKNTLYLQMNSLRAEDTAVYYCARSATWHDTHLDYWGQGTLVTVSS VL: DIQMTQSPSSLSASVGDRVTITCRASQSILTYLNWYQQKPGKAPKLLIYAATSRASGVPSRFSGSGSGTDFTLTISSLQPEDFATYYCQQSYDNPLTFGGGTKVEIK 0.0046

Which value of Phospho-SMAD3 Human Skeletal Muscle GDF8 (AlphaLisa, primary human myotubes) has been reported for 372_D04 (antibody, V domains shown) VH: EVQLLESGGGLVQPGGSLRLSCAASGFTFSSYSMNWVRQAPGKGLEWVANINYNSGYTGYADSVKGRFTISRDNSKNTLYLQMNSLRAEDTAVYYCARSATWHDTHLDYWGQGTLVTVSS VL: DIQMTQSPSSLSASVGDRVTITCRASQSILTYLNWYQQKPGKAPKLLIYAATSLHSGVPSRFSGSGSGTDFTLTISSLQPEDFATYYCQQSYDLPLTFGGGTKVEIK in the records? 0.0114

Field request: Phospho-SMAD3 Human Skeletal Muscle GDF8 (AlphaLisa, primary human myotubes) | item: 375_C12 (antibody, V domains shown) VH: EVQLLESGGGLVQPGGSLRLSCAASGFTFSSYSMNWVRQAPGKGLEWVANINYNGGYTGYADSVKGRFTISRDNSKNTLYLQMNSLRAEDTAVYYCARSATWHDTHLDYWGQGTLVTVSS VL: DIQMTQSPSSLSASVGDRVTITCRASQSILTYLNWYQQKPGKAPKLLIYAATSRASGVPSRFSGSGSGTDFTLTISSLQPEDFATYYCQQSYDLPLTFGGGTKVEIK 0.0063
